- TESTED TARGET: human P2X4 (Homo sapiens, UniProt Q99571)
- Sequence (Q99571 1-388): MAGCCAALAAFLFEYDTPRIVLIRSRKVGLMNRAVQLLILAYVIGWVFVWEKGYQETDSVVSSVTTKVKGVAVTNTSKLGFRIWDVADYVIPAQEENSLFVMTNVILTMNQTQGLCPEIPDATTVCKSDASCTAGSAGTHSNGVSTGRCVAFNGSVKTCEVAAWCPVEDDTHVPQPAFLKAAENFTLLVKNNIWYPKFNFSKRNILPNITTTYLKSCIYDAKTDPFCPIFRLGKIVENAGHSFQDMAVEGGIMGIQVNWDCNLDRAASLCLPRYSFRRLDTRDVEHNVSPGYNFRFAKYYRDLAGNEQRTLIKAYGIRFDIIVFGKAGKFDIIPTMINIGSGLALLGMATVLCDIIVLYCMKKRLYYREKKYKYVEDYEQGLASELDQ
- METHOD: Human P2X4 HEK Cell Electrophysiology Assay A (PatchLiner)
- Format: cell-based
- Parameters: expressed in transfected cells; host or cells: HEK293
- EXPERIMENTAL PARAMETERS: ATP 5 μM, -80 mV; read-out: Human P2X4 HEK Cells (PatchLiner Electrophysiology) avg IC50
pIC50: −log10 of the molar value.
PROPERTY LABEL: pIC50

>  <SMILES STRUCTURE>
N#Cc1cnn(-c2ccc(NC(=O)Cc3ccccc3Cl)cc2S(N)(=O)=O)c1

>  <NUMERIC VALUE>
6.86

$$$$

I: NS(=O)(=O)c1cc(NC(=O)Cc2ccccc2Cl)ccc1-n1cc(C(F)(F)F)cn1
II: NS(=O)(=O)c1cc(NC(=O)Cc2ccccc2Cl)ccc1-c1cnn(C(F)F)c1
III: NS(=O)(=O)c1cc(NC(=O)Cc2ccccc2Cl)cnc1-n1cc(C(F)(F)F)cn1
// ranking: key=pIC50, reverse=True Give me the labels in the order the question wants.
II, I, III
(II: 7.24, I: 6.95, III: 6.49)

----------
- TESTED TARGET: endogenous P2X4 channels (Homo sapiens, UniProt Q99571)
- Construct: measure calcium influx through endogenous P2X4 channels into primary human monocytes; endogenous in cells; host or cells: primary human monocytes isolated from donor PBMCs
- METHOD: Human Monocyte P2X4 Assay (FLIPR)
- Assay type: cell-based
- EXPERIMENTAL PARAMETERS: primary human monocytes, 3 μM BzATP, one value per donor; read-out: Human P2X4 Monocytes (FLIPR Assay) Efficacy for different donors
PROPERTY LABEL: Emax (%)

>  <SMILES STRUCTURE>
N#Cc1cnn(-c2ccc(NC(=O)Cc3ccccc3Cl)cc2S(N)(=O)=O)c1

>  <Emax / %>
88

$$$$
>  <SMILES STRUCTURE>
COc1ccc(CC(=O)Nc2ccc(-n3cc(Cl)cn3)c(S(N)(=O)=O)c2)cc1

>  <Emax / %>
60

$$$$
>  <SMILES STRUCTURE>
NS(=O)(=O)c1cc(NC(=O)Cc2ccccc2Cl)ccc1-n1cnc(Cl)n1

>  <Emax / %>
79

$$$$

a: NS(=O)(=O)c1cc(NC(=O)Cc2ccccc2Cl)ccc1-n1cc(F)cn1
b: NS(=O)(=O)c1cc(NC(=O)Cc2ccccc2Cl)cnc1-n1cc(Cl)cn1
Which value of Emax is numerically greater: that of a or that of b ? Selection: enter the item's label.
a
